Answer each item with its documented binding affinity ratio.
- Target under test: HLA-B*0702 (human)
- Procedure text: competition with 125I-labelled standard peptide for purified HLA-B*0702, gel filtration
- Test context: scale: ratio
Give bare numbers.

Worked examples, 2 binders total:
1. HPQEMKTYSV (modifications not checked) [PSM 618 …] ... 0.0003
2. HPQKVTKFM (modifications not checked) [PSA 184 …] ... 0.17

[in] Query (binder): GPLVCNGVL (modifications not checked) [PSA 211 …] ; field requested: binding affinity ratio
[out] 0.028
